Taken from the supplement of paper PMC9233669.

Test system: biotinyl-Ile-oxazolone
Experiment: self-aminoacylation, catalytic enhancement (BIO) (fold over background); higher = more active; k-Seq, kA / k0A0; sequences stand for … in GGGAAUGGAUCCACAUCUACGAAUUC…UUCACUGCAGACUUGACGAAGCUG
Fewer inactive variants are shown than the library holds.
measured_parameter: self-aminoacylation
Would you mind answering with just the numeric figure?

The following sequences have reported results that may help.
>>> readout_value("AUUCGCCUAGGUCAUCGGGUU [Fam2.2 aminoacylation ribozyme variant]")
8.6
>>> readout_value("CCACACUUCAAUUAAUCGGUC [Fam1B.1 aminoacylation ribozyme variant]")
1.01
>>> readout_value("AUUCACAAAGGUCAUCGGGUG [Fam2.2 aminoacylation ribozyme variant]")
5.84

Returns the measured self-aminoacylation for the input sequence. Input: CCACACAUCAAGCAAUCGGAC [Fam1B.1 aminoacylation ribozyme variant] 0.897
